Documented IC50 across a set of molecules
- TARGET_OR_TEST_SYSTEM: human NOX4 (Homo sapiens)
- Construct: membrane fraction used
- Sequence (Q9NPH5 whole entry): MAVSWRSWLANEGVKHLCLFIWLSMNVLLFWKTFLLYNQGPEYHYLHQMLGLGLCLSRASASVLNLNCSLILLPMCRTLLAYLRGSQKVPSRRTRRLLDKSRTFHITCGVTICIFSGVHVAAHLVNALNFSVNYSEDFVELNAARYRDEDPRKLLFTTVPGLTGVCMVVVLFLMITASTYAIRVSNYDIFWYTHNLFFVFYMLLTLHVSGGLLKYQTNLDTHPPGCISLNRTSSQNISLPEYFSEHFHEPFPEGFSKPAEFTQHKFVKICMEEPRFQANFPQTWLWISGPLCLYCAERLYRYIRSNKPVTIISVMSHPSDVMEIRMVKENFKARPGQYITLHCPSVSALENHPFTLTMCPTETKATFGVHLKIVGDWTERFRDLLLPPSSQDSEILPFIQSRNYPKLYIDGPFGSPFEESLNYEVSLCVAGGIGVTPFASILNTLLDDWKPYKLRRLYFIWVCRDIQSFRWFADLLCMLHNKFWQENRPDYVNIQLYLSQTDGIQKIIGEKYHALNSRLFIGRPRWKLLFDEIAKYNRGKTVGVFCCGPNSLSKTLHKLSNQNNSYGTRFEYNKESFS
- Sequence (P13498 whole entry partner): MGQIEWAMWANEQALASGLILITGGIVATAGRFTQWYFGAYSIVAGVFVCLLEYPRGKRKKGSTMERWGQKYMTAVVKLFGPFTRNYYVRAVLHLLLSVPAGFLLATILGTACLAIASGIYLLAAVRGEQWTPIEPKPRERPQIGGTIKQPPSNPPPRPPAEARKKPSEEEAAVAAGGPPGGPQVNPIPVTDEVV
- ASSAY_PROCEDURE: Cell free membrane based in vitro NOX4 assay: H2O2 production by membranes expressing human NOX4, measured with Amplex Red
- CONDITION_INFO: class symbols
- Description: The inhibition of NOX4 activity was measured as inhibition of formation of reactive oxygen species (ROS) from oxygen in cell free assays. […] Protein concentration was determined by Bradford reagent. H202 production by membranes expressing human NOX4 was measured using Amplex Red (Invitrogen) by following a slightly modified version of the manufacturer's instruction manual. […] IC50 value was calculated from concentration response curve by nonlinear regression analysis using GraphPad PRISM software.
OBSERVATION_TYPE: IC50

1. Cn1nc(Cc2ccccc2Cl)c2c(=O)c(O)c(-c3ccccc3Cl)[nH]c21: > 0.15 µM
2. CCn1nc(C)c2c(=O)c(O)c(-c3ccc(OC)cc3F)[nH]c21: > 0.15 µM
3. CCc1nn(CCO)c2[nH]c(-c3c(F)cccc3F)c(O)c(=O)c12: 0.05 to 0.1 µM
4. O=c1c(O)c(-c2c(F)cccc2F)[nH]c2c1c(CO)nn2CCC1CCOCC1: 0.1 to 0.15 µM
5. Cc1nn(CCN2CCN(C)CC2)c2[nH]c(-c3ccccc3Cl)c(O)c(=O)c12 [Example 155]: < 0.05 µM
